Tested on: RXF 393
method: NCI tumour cell line growth inhibition, 48 h
The source made the active and inactive calls. No stated cut-off is given here; in the data, active = GI50 up to about 1.1 µM and inactive = higher. Residues, ends and D or L forms follow the SMILES beside them. *: point of attachment. Boc = CC(C)(C)OC(=O)*; OBn = c1ccc(CO*)cc1
observation.type: GI50

| compound | observation.type | measured |
| --- | --- | --- |
| CC(C)(C)C1CC[C@H]2c3c([nH]c4ccc(Br)cc34)[C@H]3C(=O)N(c4ccccc4)C(=O)[C@H]3[C@H]2C1 (some centres undefined) | GI50 | 32.7 µM (inactive) |
| CC(C)(C)OC(=O)c1ccc(NCC2=CC(=O)C=CC2=O)cc1 | GI50 | 11.4 µM (inactive) |
| CN(C)c1ccc(/C=C/c2cc[n+](C)c3ccccc23)cc1 | GI50 | 7.1 µM (inactive) |
| CC[C@H](CCCCC1CC[C@@H]2CC(=O)C[C@H]12)OC (some centres undefined) | GI50 | > 100 µM (inactive) |
| N#CC(C#N)=C(N)/C(C#N)=C/c1ccc2ccccc2n1 | GI50 | 20 µM (inactive) |
| CC(C)C(NC(=O)CNC(=O)C1CCCN1C(=O)C(NC(=O)OC(C)(C)C)C(C)C)C(=O)NCC(=O)OCc1ccccc1 (centres undefined) (Boc-VPGVG-OBn; configuration not given here) | GI50 | > 100 µM (inactive) |
| CCSc1nc(N/N=C/c2cccs2)c2cnn(CO)c2n1 | GI50 | 3.66 µM (inactive) |
| N#C/C(=C\c1ccccc1Br)C(=O)c1ccccc1 | GI50 | 32.9 µM (inactive) |
| Cc1ccc(NC(=O)COc2ccc(Cl)cc2)cc1Cl | GI50 | 24.7 µM (inactive) |

====

Test system: 786-0
method: NCI tumour cell line growth inhibition, 48 h
Activity calls are given as the source filed them. No stated cut-off is given here; in the data, active = GI50 up to about 1.1 µM and inactive = higher.
Possible outcomes: 1 = active, -1 = inactive

| compound | class |
| --- | --- |
| COC1C(OC(=O)/C=C/C=C/C=C/C=C/C(=O)O)CCC2(CO2)C1C1(C)OC1CC=C(C)C (stereo not given) | -1 |
| CC(=O)OC(=C(C#N)C#N)c1nccnc1C(=O)O | -1 |
| CC(C)(C)c1cc(-c2cc(C(C)(C)C)n(-c3ccccc3)n2)nn1-c1ccccc1 | -1 |
| CCSc1nc(N/N=C/c2cccs2)c2cnn(CO)c2n1 | 1 |
| Cc1ccc(SC(C)/C=C/NNC2=NN=C(c3ccccc3)C(c3ccccc3)N2)cc1 (stereo not given) | -1 |

====

System: SF-295
method: NCI tumour cell line growth inhibition, 48 h
Calls of active or inactive are those of the source. Cut-off read from the data, not from the text of the source: active = GI50 up to about 1.1 µM and inactive = higher.
Labels: YES (active), NO (inactive)

| compound | class |
| --- | --- |
| CN(c1ccc(Cl)cc1)S(=O)(=O)c1ccccc1 | NO |
| OC1(c2ccccc2)CCN(Cc2c[nH]c3ccccc23)CC1 | NO |
| COc1ccc2c(c1)nc1n2C(c2c(F)cccc2F)SC1 (stereo not given) | NO |
| O=C(CCCn1ccnc1[N+](=O)[O-])NCCn1cncc1[N+](=O)[O-] | NO |
| CNS(=O)(=O)NN(C)S(=O)(=O)c1ccc(F)cc1 | NO |
| O=C(COc1ccc(Cl)c(Cl)c1)N(Cc1ccccc1)Cc1ccc[n+](Cc2ccc(Cl)cc2S(=O)(=O)F)c1 | NO |
| O=C(/N=C1/OC(CN2CCOCC2)CN1C(=O)Nc1ccccc1)Nc1ccccc1 (stereo not given) | NO |
| Cc1ccc(-n2c(C)n[nH]c2=O)cc1 | NO |
| CCCCC/C=C1/CC(CO)(COC(=O)CC(C(C)C)C(C)C)OC1=O (stereo not given) | NO |
| N/N=C1\C(=O)N(c2ccc(Cl)cc2Cl)C(=O)C(=O)C1c1nc2ccccc2o1 (stereo not given) | NO |
| COC(=O)C1CCc2nnc(-c3ccccc3)n21 (stereo not given) | NO |
| Cc1ccnc(NC(NC(=O)c2ccccc2)(C(F)(F)F)C(F)(F)F)c1 | NO |
| COc1c(O)cc(C(=O)O[C@@H]2Cc3c(O)cc(O)cc3O[C@@H]2c2cc(O)c(O)c(O)c2)cc1O | NO |
| CC[C@]12C=CCN3CC[C@@]4(c5cc(Br)c(OC)cc5N(C)[C@H]4[C@@](O)(C(=O)NC(Cc4c[nH]c5ccccc45)C(=O)OC)[C@@H]1O)[C@@H]32 (stereo not given in full) | NO |
| CC1(C)CNC(c2ccc3c(c2)Cc2cc(C4=NC(C)(C)CN4)ccc2-3)=N1 | NO |
| CCCCCCCCCCCNC=O | NO |
| CC1=CC(C)C(O)C(C)/C=C\C(O)C/C=C(/C)C(=O)CC(O)C(C)\C=C/C=C\C=C/C(=O)NC2=C(O)C(=O)c3c(cc(C)c(O)c3C1=O)C2=O (stereo not given) | NO |
| O=S(=O)(c1ccc(NC(=S)N/N=C/c2ccccc2O)cc1)N1CCCCC1 | YES |
| N#C/C(=C\c1ccccc1Br)C(=O)c1ccccc1 | NO |
| COC1C(OC(=O)/C=C/C=C/C=C/C=C/C(=O)O)CCC2(CO2)C1C1(C)OC1CC=C(C)C (stereo not given) | NO |
